test system: WaGa; experiment: qHTS assay to identify novel small-molecules to repurpose for Merkel cell carcinoma treatment (AID 1296009); conditions: MCC and control cell lines, CellTiter-Glo viability, 72 h; series mostly up to 46 µM; further: nearly all actives have a fitted effect of over 60% in size
Inconclusive results are not listed. Calls of active or inactive are those of the source. The call rests on the fitted dose curve; in most records, active means well fitted inhibition curve with a large enough effect; inconclusive means small, poorly fitted or top-dose-only effect; inactive means flat fitted curve, though single readings scatter.
A correct response names exactly one class from active, inactive

For O=S(=O)(O)c1ccc(O)cc1 , what call appears in the results of this test? inactive

For FC(F)(F)C(F)(F)C(F)(F)C(F)(F)C(F)(F)C(F)(F)C(F)(F)C(F)(F)Br , what call appears in the results of this test? inactive

For CCCCCCCCCCCCCC[N+](C)(C)Cc1ccccc1 , what call appears in the results of this test? active

For CNCCc1ccccn1 , what call appears in the results of this test? inactive

For CCN1/C(=C/C=C/c2sc3ccccc3[n+]2CC)Sc2ccccc21 , what call appears in the results of this test? active

For CC(C(=O)O)c1cccc(Oc2ccccc2)c1 (stereo unspecified) , what call appears in the results of this test? inactive

Every entry's value here was drawn from PubChem BioAssay (NCATS).
